target: Aromatase (Homo sapiens); assay: qHTS assay to identify aromatase inhibitors (AID 743083); conditions: MCF-7 aro ERE, testosterone-driven ERE luciferase, 24 h; series mostly up to 70.3 µM; further: nearly all actives have a fitted effect of over 55% in size
Results filed as inconclusive are left out. The source made the active and inactive calls. The call rests on the fitted dose curve; in most records, active means well fitted inhibition curve with a large enough effect in the repeat runs; inconclusive means weak or mixed curves; inactive means no such curve, though single readings can be large or run the other way.
Can you answer with just one of these options? active, inactive

These solved cases illustrate the format of a correct answer.
molecule: CC(=O)O[C@]1(C(C)=O)CC[C@H]2[C@@H]3CCC4=CC(=O)CC[C@]4(C)[C@@]3(F)[C@@H](O)C[C@@]21C
systemName: Aromatase (Homo sapiens)
answerLabel: inactive
--
molecule: N#CC(c1ccc(Cl)cc1)c1c(Cl)cc(-n2ncc(=O)[nH]c2=O)cc1Cl (configuration not stated)
systemName: Aromatase (Homo sapiens)
answerLabel: inactive

Q: Any idea what this test logged for CCCCCCCCCCCCCCCCCC[N+](C)(C)CCC[Si](OC)(OC)OC ?
A: inactive

Q: Any idea what this test logged for CCSc1ccc2c(c1)N(CCCN1CCN(C)CC1)c1ccccc1S2 ?
A: inactive

Q: Any idea what this test logged for CCCCCCCCCCCCCCCCCCCCCC(=O)Nc1ccn([C@@H]2O[C@H](CO)[C@@H](O)[C@@H]2O)c(=O)n1 ?
A: inactive

Q: Any idea what this test logged for CO[C@@H]1[C@@H](O[C@@H]2O[C@H](C)[C@@H](O[C@H]3C[C@@](C)(O)[C@@H](OC(=O)CC(C)C)[C@H](C)O3)[C@H](N(C)C)[C@H]2O)[C@@H](CC=O)C[C@@H](C)C(=O)/C=C/C2OC2C[C@@H](C)OC(=O)C[C@H]1OC(C)=O (some centres not stated) ?
A: inactive

Q: Any idea what this test logged for O=C(COc1ccc(Cl)cc1)OCCNC12CC3CC(CC(C3)C1)C2 ?
A: inactive

Q: Any idea what this test logged for CC(=O)N[C@@H]([C@@H](O)[C@H](O)[C@H](O)CO)[C@@H](O)CC(=O)C(=O)O ?
A: inactive

Q: Any idea what this test logged for O=C(O)[C@H]1/C(=C/CO)O[C@@H]2CC(=O)N21 ?
A: inactive

Q: Any idea what this test logged for CC(C)N=c1cc2n(-c3ccc(Cl)cc3)c3ccccc3nc-2cc1Nc1ccc(Cl)cc1 ?
A: inactive

Q: Any idea what this test logged for COC1=C(C(=O)O)N2C(=O)[C@@H](NC(=O)[C@H](N)C3=CCC=CC3)[C@H]2SC1 ?
A: inactive

Q: Any idea what this test logged for COc1ccc(CCNC[C@H](O)c2ccc(O)cc2)cc1OC ?
A: inactive

Q: Any idea what this test logged for CSc1nc2cc(Oc3cccc(Cl)c3Cl)c(Cl)cc2[nH]1 ?
A: active
